# study system: GGA3 579-723 Alpha_adaptinC2 (domain begin residue: 579, domain end residue: 723)
# protocol: phage ELISA signal ratio (GST-PRM binding over GST background); higher = stronger binding of peptide-phage to the PRM
Below: a set of entries, each annotated with reported phage ELISA signal ratio.
# answer = number (no unit)

Sample records with phage ELISA signal ratio:
{"columns": ["binder", "measured result"],
 "data": [
  ["IQWNDMDFENLSGWWG", 4.03],
  ["GEQMMWVDWGQWHWYE", 26],
  ["DTWMWGGYVSHTVQPY", 23.1],
  ["DWSQWQTAAMEEMITW", 18.5]
]}

# context switch: different binder, same phage ELISA signal ratio
Returns the measured phage ELISA signal ratio for the input binder. Input: IENSQPWITEYGAWEV
6.07
